B1: TPR t1 (parent)
chain: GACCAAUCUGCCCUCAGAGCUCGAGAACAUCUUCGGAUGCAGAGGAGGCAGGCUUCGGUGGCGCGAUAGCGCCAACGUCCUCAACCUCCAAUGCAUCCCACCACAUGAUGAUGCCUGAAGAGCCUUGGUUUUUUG

Variants of: B1
METHOD_NOTES: polymerase ribozyme fitness, log enrichment relative to wild type (log ratio); higher = more active; in vitro selection for triplet polymerase activity
Please respond with reported polymerase ribozyme fitness (log ratio) for every item in the list.
Form rule: numeric answer, no unit written next to it.

## Input Data request, read-out polymerase ribozyme fitness (log ratio), for C15A A84G C94U
## Output -2.76

## Input What about C79U U109G ?
## Output -5.09

## Input What about G69U C70U C80U G113C A119G ?
## Output -3.06

## Input What about C12U A16C C73A A83C ?
## Output 0.284

## Input What about C34A G42A G61A G117C U131C ?
## Output -7.25

## Input What about C11U C94U ?
## Output -1.24

## Input What about C8G C82A G117U ?
## Output 0.587

## Input What about C56G C94U ?
## Output -0.644

## Input What about A50U G51A U87G U106A ?
## Output -2.51

## Input What about C22A G48U G63A C94G G120A ?
## Output -5.73

## Input What about G60A C99U G110U U130A ?
## Output -5.82

## Input What about C40U G93A ?
## Output -1.09

## Input What about U38G C56U C72A U131C ?
## Output -2.05

## Input What about G42C C124G ?
## Output 0.37

## Input What about C12A C13A U55A G63U U131A ?
## Output -2.53

## Input What about C12G A43U U92G C104A G117U A118U ?
## Output -5.1

## Input What about G39C A43U A90G C114U U125A ?
## Output -2.64

## Input What about G17C A121G U133A ?
## Output -1.73

## Input What about C15A G57A C94U ?
## Output -2.78

## Input What about A18G C123U U132A ?
## Output -2.14

## Input What about G71U G122A ?
## Output -0.705

## Input What about G52U U130C ?
## Output -0.807

## Input What about C8G A50C C73U G93A ?
## Output -0.0523

## Input What about G36C G45C ?
## Output -2.04

## Input What about G61A G120A C123U ?
## Output 1.5

## Input What about A5C C8U C34A C79U C101G ?
## Output -3.49

## Input What about G44A C80A ?
## Output -3.93

## Input What about C82G C115A C123A ?
## Output -1.32

## Input What about U14C C15A A46C ?
## Output -5.53

## Input What about C11A C72A C101A U126C ?
## Output -3.38

## Input What about C13G C49A G60U ?
## Output -2.3

## Input What about A74U C88U U116A ?
## Output -3.69

## Input What about G25A G60C ?
## Output -7.2

## Input What about A29U G61U U106G ?
## Output -1.91

## Input What about C3A A105G ?
## Output -4.78

## Input What about C12G C34U ?
## Output -3.31

## Input What about C86G C89G C104U ?
## Output -0.896

## Input What about C76A C115U U129A ?
## Output -4.13

## Input What about U30C G42U ?
## Output -3.85

## Input What about C82U C94U C114A ?
## Output -2.17

## Input What about C3A A6G C13U C15G U59C ?
## Output -3.21

## Input What about A27C G120U ?
## Output -4.08

## Input What about U21A C49A C56A A121U ?
## Output 0.0625

## Input What about A18C A95C G128U ?
## Output -5.8

## Input What about G60C A83G ?
## Output -1.24

## Input What about G63C C76U U87G U116A G120A ?
## Output -4.12

Reference source: the RNAGym collection of RNA variant scans (doi:10.1073/pnas.2313332121)
